# assayed-system: ETS1 (UniProt P14921)
# Sequence: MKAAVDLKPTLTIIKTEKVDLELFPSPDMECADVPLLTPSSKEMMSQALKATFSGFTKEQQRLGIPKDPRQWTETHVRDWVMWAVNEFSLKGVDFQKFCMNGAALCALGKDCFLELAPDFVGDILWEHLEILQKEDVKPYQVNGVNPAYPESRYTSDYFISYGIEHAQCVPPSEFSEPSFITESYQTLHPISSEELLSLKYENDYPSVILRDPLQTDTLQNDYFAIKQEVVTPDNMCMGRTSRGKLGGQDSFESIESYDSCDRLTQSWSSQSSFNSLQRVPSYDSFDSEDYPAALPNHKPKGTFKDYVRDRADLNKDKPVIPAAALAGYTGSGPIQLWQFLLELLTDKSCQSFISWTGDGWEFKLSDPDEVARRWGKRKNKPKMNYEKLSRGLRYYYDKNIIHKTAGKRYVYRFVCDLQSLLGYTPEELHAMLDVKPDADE
# test-details: ETS1 binding intensity (PBM fluorescence), ETS1 alone (arbitrary fluorescence units); higher = stronger binding
# measurement-conditions: ETS1 concentration 1 nM; RUNX1 concentration 0 nM
metric: ETS1 binding intensity
One number for each entry.

The examples below pair each entry with its known result.
CAAAGGTTAAATGCAGGATGTGGTTTCTGCAGACTC    2750
GCCCAGTTCTCGCATCCGGTCTGCGGCGCGCTCGGG    4380
ACCTCAGGTACCGGAAGACCACAATTCCCAGGAGTC    2950
AGGGACCCGGATGTCTGGTCTGCGGCTGCTCCTCTA    1460
AGCTAAACCCAGTTCCGGTGCTGTGGGGAGCTCAGA    858

Below are some sequences; for each one, tell me its ETS1 binding intensity.
1. GCCACTATTTCCTGCCTTCTGCGGCTGAGAGTCCCA
2. AACATCCGGTTCCCGGTTCTGCCCCCTACCGCAGCT
3. TGTCATCCCGGAAACTGATAACAAGACCGCGAGTCA
4. CTCTTCCTGCCTGTCCGTGGCTGGTGTGGTTTGCGT

Solution:
981
3190
1910
457

Values were extracted from the supplement of paper PMC10681739.
